System: Enterobacteria phage lambda
experimentalDetails: Induction of Lambda phage supercoiled circular pBluescript KS II DNA cleavage assessed as double-stranded nick formation at 1000 uM preincubated for 30 mins followed by UV light irradiation under aerobic condition measured after 15 mins by agarose gel electrophoresis
reportedMetric: Activity
Number first, unit second.

Look up Activity: "O=C(O/N=C/c1ccncc1)c1ccc([N+](=O)[O-])cc1"
33%

Also, "N/C(=N\OC(=O)c1ccc([N+](=O)[O-])cc1)c1ccncc1" please.
50%

Queued: "NC(=NOC(=O)c1ccc([N+](=O)[O-])cc1)c1cccnc1"
36%

Now this one: "O=C(O/N=C/c1cccnc1)c1ccc([N+](=O)[O-])cc1"
13%

// repeat for "NC(=NOC(=O)c1ccc([N+](=O)[O-])cc1)c1ccccn1" and report
20%

Same thing, different compound: "O=C(O/N=C/c1cccnc1)c1ccccc1"
1%

Moving on to "O=C(O/N=C/c1ccccn1)c1ccc([N+](=O)[O-])cc1"
7%

* * *

Test system: Enterobacteria phage lambda
experimentalDetails: Induction of Lambda phage supercoiled circular pBluescript KS II DNA cleavage assessed as single-stranded nick formation at 500 uM preincubated for 30 mins followed by UV light irradiation under aerobic condition measured after 15 mins by agarose gel electrophoresis
So I've got a bunch of molecules here, and I need their Activity values.
Use % as the unit, but write only the number.

Fill in: Activity of "O=C(O/N=C/c1cccnc1)c1ccc([N+](=O)[O-])cc1" is ___
81

For "COc1ccc(C(=O)O/N=C(\N)c2cccnc2)cc1" then?
27

Then what about the molecule "N=C(NOC(=O)c1ccccc1)c1cccnc1" ?
25

And "COc1ccc(C(=O)O/N=C/c2cccnc2)cc1" ?
29

// same read-out, input: "O=C(O/N=C/c1cccnc1)c1ccccc1"
38

Now consider "CC(=O)O/N=C(\N)c1cccnc1" .
6

# iterate: "NC(=NOC(=O)c1ccc([N+](=O)[O-])cc1)c1cccnc1"
75

* * *

For each of the compounds below, state its Activity.
Tested on: Enterobacteria phage lambda
experimentalDetails: Induction of Lambda phage supercoiled circular pBluescript KS II DNA cleavage assessed as double-stranded nick formation at 100 uM preincubated for 30 mins followed by UV light irradiation under aerobic condition measured after 15 mins by agarose gel electrophoresis

# lookup: Activity of "O=C(O/N=C/c1ccccn1)c1ccc([N+](=O)[O-])cc1"
10%

Entry to check: "NC(=NOC(=O)c1ccc([N+](=O)[O-])cc1)c1ccccn1"
10%

Lookup "NC(=NOC(=O)c1ccc([N+](=O)[O-])cc1)c1cccnc1"
4%

Follow-up entry: "O=C(O/N=C/c1cccnc1)c1ccc([N+](=O)[O-])cc1"
2%

Then what about the compound "O=C(O/N=C/c1ccncc1)c1ccc([N+](=O)[O-])cc1" ?
9%

Note, next up: "N/C(=N\OC(=O)c1ccc([N+](=O)[O-])cc1)c1ccncc1"
7%

* * *

Test system: Enterobacteria phage lambda
experimentalDetails: Induction of Lambda phage supercoiled circular pBluescript KS II DNA cleavage assessed as single-stranded nick formation at 100 uM preincubated for 30 mins followed by UV light irradiation under aerobic condition measured after 15 mins by agarose gel electrophoresis
reportedMetric: Activity (%)
Unit % implied. Number only.

GET /values?readout=Activity&item= "O=C(O/N=C/c1cccnc1)c1ccccc1"
39

Next entry: "NC(=NOC(=O)c1ccc([N+](=O)[O-])cc1)c1cccnc1"
81

Okay, and "N=C(NOC(=O)c1ccccc1)c1cccnc1" ?
5

Param item: "CC(=O)O/N=C(\N)c1cccnc1"
0

Record: "O=C(O/N=C/c1ccccn1)c1ccc([N+](=O)[O-])cc1"
83

Can you check "NC(=NOC(=O)c1ccc([N+](=O)[O-])cc1)c1ccccn1" next?
85
